Hey, just so you know, these numbers are from patent US11059824B2.

target: human TLR7 (Homo sapiens (Human)); experiment: TLR7 reporter assay (HEK293-TLR-NF-κB inducible SEAP reporter); conditions: HEK293 cells stably expressing human TLR7 with NF-κB-driven SEAP reporter; 15-24 hours
Sequence (Q9NYK1 27-1049): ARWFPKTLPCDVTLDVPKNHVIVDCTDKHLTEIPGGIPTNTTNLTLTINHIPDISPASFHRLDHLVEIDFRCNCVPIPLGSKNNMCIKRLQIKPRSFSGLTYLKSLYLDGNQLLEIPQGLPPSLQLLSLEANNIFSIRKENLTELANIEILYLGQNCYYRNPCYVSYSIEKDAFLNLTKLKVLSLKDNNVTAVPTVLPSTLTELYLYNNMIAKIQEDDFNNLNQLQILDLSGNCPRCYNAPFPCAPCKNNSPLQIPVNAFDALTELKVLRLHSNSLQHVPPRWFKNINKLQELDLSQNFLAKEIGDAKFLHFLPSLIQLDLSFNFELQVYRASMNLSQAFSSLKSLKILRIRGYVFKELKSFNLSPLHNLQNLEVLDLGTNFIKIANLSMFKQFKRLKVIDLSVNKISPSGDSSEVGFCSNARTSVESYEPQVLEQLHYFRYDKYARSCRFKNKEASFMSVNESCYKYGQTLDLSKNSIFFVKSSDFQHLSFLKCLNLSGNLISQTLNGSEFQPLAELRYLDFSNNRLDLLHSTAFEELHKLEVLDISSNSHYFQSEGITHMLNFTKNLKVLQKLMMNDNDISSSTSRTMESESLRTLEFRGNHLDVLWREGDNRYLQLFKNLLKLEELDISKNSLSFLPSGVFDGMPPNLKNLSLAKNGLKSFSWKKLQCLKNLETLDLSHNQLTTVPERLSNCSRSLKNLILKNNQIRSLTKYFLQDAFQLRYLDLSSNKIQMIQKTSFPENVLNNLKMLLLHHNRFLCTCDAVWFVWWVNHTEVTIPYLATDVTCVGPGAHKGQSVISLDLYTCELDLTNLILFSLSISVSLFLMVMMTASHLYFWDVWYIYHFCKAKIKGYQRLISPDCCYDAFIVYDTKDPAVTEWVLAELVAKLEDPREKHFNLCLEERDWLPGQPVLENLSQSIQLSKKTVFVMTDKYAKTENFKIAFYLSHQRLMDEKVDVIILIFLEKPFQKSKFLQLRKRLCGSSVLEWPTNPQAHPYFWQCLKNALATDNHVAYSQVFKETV
quantity-name: EC50 (µM)

Field: example entries. Status: answers known.
[[record]]
query_smiles = "COCCn1c(=O)n([C@@H]2O[C@H](CO)[C@H](O)[C@H]2O)c2nc(N)[nH]c(=O)c21"
quantity_name = "EC50"
scale_unit = "µM"
observed = 567

[[record]]
query_smiles = "Nc1nc2c(c(=O)[nH]1)n(Cc1ccc(C(F)(F)F)cc1)c(=O)n2[C@@H]1O[C@H](CO)C[C@H]1O"
quantity_name = "EC50"
scale_unit = "µM"
observed = 1160


a = Nc1nc2c(c(=O)[nH]1)n(CC(F)F)c(=O)n2[C@@H]1O[C@H](CO)[C@H](O)[C@H]1O
b = C#CCn1c(=O)n([C@@H]2O[C@H](CO)C[C@H]2O)c2nc(N)[nH]c(=O)c21
Which of these two has the smaller recorded EC50: a or b ? Kindly state the label of the option you pick.
a

I = Nc1nc2c(c(=O)[nH]1)n(CC1CC1)c(=O)n2[C@@H]1O[C@H](CO)[C@H](O)[C@H]1O
II = COC(=O)Cn1c(=O)n([C@@H]2O[C@H](CO)[C@H](O)[C@H]2O)c2nc(N)[nH]c(=O)c21
API: POST /compare with I and II ; response names the item with higher EC50. Pick one; state its label.
II
(II: 407 µM, I: 188 µM)

A = Nc1nc2c(c(=O)[nH]1)n(CCCCO)c(=O)n2[C@@H]1O[C@H](CO)[C@H](O)[C@H]1O
B = Nc1nc2c(c(=O)[nH]1)n(CCCC(=O)O)c(=O)n2[C@@H]1O[C@H](CO)[C@H](O)[C@H]1O
Parameter check: reported EC50 is higher for which label, A or B ? Please respond with the label that marks your chosen entry.
A

----------
target: human TLR7 (Homo sapiens (Human)); assay: TLR7 reporter assay (HEK293-TLR-NF-κB inducible SEAP reporter); settings: HEK293 cells stably expressing human TLR7 with NF-κB-driven SEAP reporter; 15-24 hours
pEC50: −log10 of the molar value.
quantity-name: pEC50

[[record]]
compound = "CCn1c(=O)n([C@@H]2O[C@H](CO)[C@H](O)[C@H]2O)c2nc(N)[nH]c(=O)c21"
system_tested = "human TLR7 (Homo sapiens (Human))"
observed = 3.27

[[record]]
compound = "CCCCn1c(=O)n([C@@H]2O[C@H](CO)C[C@H]2O)c2nc(N)[nH]c(=O)c21"
system_tested = "human TLR7 (Homo sapiens (Human))"
observed = 3.25

[[record]]
compound = "Nc1nc2c(c(=O)[nH]1)n(CC(F)(F)F)c(=O)n2[C@@H]1O[C@H](CO)[C@H](O)[C@H]1O"
system_tested = "human TLR7 (Homo sapiens (Human))"
observed = 3.82

[[record]]
compound = "COC(=O)CCCn1c(=O)n([C@@H]2O[C@H](CO)[C@H](O)[C@H]2O)c2nc(N)[nH]c(=O)c21"
system_tested = "human TLR7 (Homo sapiens (Human))"
observed = 3.28


1 = CC#CCn1c(=O)n([C@@H]2O[C@H](CO)[C@H](O)[C@H]2O)c2nc(N)[nH]c(=O)c21
2 = CCCn1c(=O)n([C@@H]2O[C@H](CO)[C@H](O)[C@H]2O)c2nc(N)[nH]c(=O)c21
3 = Nc1nc2c(c(=O)[nH]1)n(C/C=C/C(=O)O)c(=O)n2[C@@H]1O[C@H](CO)[C@H](O)[C@H]1O
Could you please order the items by pEC50, going from the lowest number to the highest? Answer with the labels in sequence, matching the requested order.
1, 2, 3
(1: 3.08, 2: 3.47, 3: 4.82)

a = C#CCn1c(=O)n([C@@H]2O[C@H](CO)[C@@H](F)[C@H]2O)c2nc(N)[nH]c(=O)c21
b = Nc1nc2c(c(=O)[nH]1)n(Cc1ccccc1)c(=O)n2[C@@H]1O[C@H](CO)C[C@H]1O
Given a and b , report the one with the higher recorded pEC50. Lab log: write the label of the selected item as the result.
a
(a: 3.42, b: 3.16)

I = Nc1nc2c(c(=O)[nH]1)n(Cc1cccc(F)c1)c(=O)n2[C@@H]1O[C@H](CO)C[C@H]1O
II = Nc1nc2c(c(=O)[nH]1)n(CC#CCO)c(=O)n2[C@@H]1O[C@H](CO)[C@H](O)[C@H]1O
Just curious, which one has the larger pEC50 reading, I or II ? Write the label of whichever entry you select.
II
(II: 3.60, I: 3.29)
